- Test system: cell lines from the Cancer Cell Line Encyclopedia (CCLE)
- ASSAY NAME: High-throughput cell viability assay, CCLE cell line panel (n = 356)
- Assay type: cell-based, human
- COND: Homo sapiens, CMK-11-5, CMK-11-5, TP53 MUT
REPORTED PROPERTY: IC50

What IC50 appears in the records for this compound with cell lines from the Cancer Cell Line Encyclopedia (CCLE)? COc1cc2c(cc1OC(C)C)[C@H](c1ccc(Cl)cc1)N(c1ccc(N(C)C[C@H]3CC[C@H](N4CCNC(=O)C4)CC3)cc1)C(=O)C2
> 8 µM

----------
- Tested on: cell lines from the Cancer Cell Line Encyclopedia (CCLE)
- ASSAY NAME: High-throughput cell viability assay, CCLE cell line panel (n = 356)
- Assay type: cell-based, human
- COND: Homo sapiens, OV-90, OV-90, TP53 MUT
- Experimental: Cell lines were partitioned into sensitive and insensitive groups based on compound potency (IC50). […] All other cell lines were obtained from ATCC (American Type Culture Collection), DSMZ (Deutsche Sammlung von Mikroorganismen und Zellkulturen), and HSRRB (Health Science Research Resources Bank) and cultured in RPMI or Dulbecco's modified Eagle's medium plus 10% FBS (Invitrogen, Carlsbad, CA) at 37°C, 5% CO2.
pIC50: −log10 of the molar value.
REPORTED PROPERTY: pIC50

What pIC50 value was documented for this compound, COc1cc2c(cc1OC(C)C)[C@H](c1ccc(Cl)cc1)N(c1ccc(N(C)C[C@H]3CC[C@H](N4CCNC(=O)C4)CC3)cc1)C(=O)C2 [NVP-CFC218] ?
< 5.10

----------
- Tested on: cell lines from the Cancer Cell Line Encyclopedia (CCLE)
- ASSAY NAME: High-throughput cell viability assay, CCLE cell line panel (n = 356)
- Assay type: cell-based, human
- COND: Homo sapiens, HEC-151, TP53 MUT
REPORTED PROPERTY: pIC50
Numbers only, as −log10 of the molar value.

Fill blank: measured pIC50 of the compound COc1cc2c(cc1OC(C)C)[C@H](c1ccc(Cl)cc1)N(c1ccc(N(C)C[C@H]3CC[C@H](N4CCNC(=O)C4)CC3)cc1)C(=O)C2 is ____.
5.10

----------
- System: cell lines from the Cancer Cell Line Encyclopedia (CCLE)
- ASSAY NAME: High-throughput cell viability assay, CCLE cell line panel (n = 356)
- Assay type: cell-based, human
- COND: Homo sapiens, SK-LU-1, SK-LU-1, TP53 MUT
- Protocol: Cell lines were partitioned into sensitive and insensitive groups based on compound potency (IC50). […] All other cell lines were obtained from ATCC (American Type Culture Collection), DSMZ (Deutsche Sammlung von Mikroorganismen und Zellkulturen), and HSRRB (Health Science Research Resources Bank) and cultured in RPMI or Dulbecco's modified Eagle's medium plus 10% FBS (Invitrogen, Carlsbad, CA) at 37°C, 5% CO2.
REPORTED PROPERTY: IC50

Form field - read-out: IC50; system: cell lines from the Cancer Cell Line Encyclopedia (CCLE); submitted item: COc1cc2c(cc1OC(C)C)[C@H](c1ccc(Cl)cc1)N(c1ccc(N(C)C[C@H]3CC[C@H](N4CCNC(=O)C4)CC3)cc1)C(=O)C2
> 8 µM

----------
- Test system: cell lines from the Cancer Cell Line Encyclopedia (CCLE)
- ASSAY NAME: High-throughput cell viability assay, CCLE cell line panel (n = 356)
- Format: cell-based, human
- COND: Homo sapiens, RT-112, RT-112, TP53 MUT
pIC50: −log10 of the molar value.
REPORTED PROPERTY: pIC50

# input compound: COc1cc2c(cc1OC(C)C)[C@H](c1ccc(Cl)cc1)N(c1ccc(N(C)C[C@H]3CC[C@H](N4CCNC(=O)C4)CC3)cc1)C(=O)C2 ; wanted: its pIC50
< 5.10

----------
- ASSAY NAME: PK parameters in preclinical species
- Type: in vivo
- COND: in vivo, iv; Monkey; single dose 0.1 mg/kg i.v. or 0.3 mg/kg p.o.
REPORTED PROPERTY: clearance (mL/min/kg)
One number for each entry, in mL/min/kg.

INSERT INTO measurements (test_smiles, reported_property, recorded_number) VALUES
  ('COc1cc2c(cc1OC(C)C)[C@H](c1ccc(Cl)cc1)N(c1ccc(N(C)C[C@H]3CC[C@H](N4CCN(C)C(=O)C4)CC3)cc1)C(=O)C2', 'clearance', 4);

Here is the next item to consider.
Which clearance is reported for this compound? COc1cc2c(cc1OC(C)C)[C@H](c1ccc(Cl)cc1)N(c1ccc(N(C)C[C@H]3CC[C@H](N4CCNC(=O)C4)CC3)cc1)C(=O)C2
11

----------
- ASSAY NAME: PK parameters in preclinical species
- Format: in vivo
- COND: in vivo, iv; Dog; single dose 0.1 mg/kg i.v. or 0.3 mg/kg p.o.; read-out: Vss
REPORTED PROPERTY: Vd (L/kg)
Numbers only, in L/kg.

INSERT INTO results (test_smiles, recorded_number) VALUES
  ('COc1cc2c(cc1OC(C)C)[C@H](c1ccc(Cl)cc1)N(c1ccc(N(C)C[C@H]3CC[C@H](N4CCN(C)C(=O)C4)CC3)cc1)C(=O)C2', 3.8);

For the compound COc1cc2c(cc1OC(C)C)[C@H](c1ccc(Cl)cc1)N(c1ccc(N(C)C[C@H]3CC[C@H](N4CCNC(=O)C4)CC3)cc1)C(=O)C2 , what Vd is on record?
3.6

----------
- ASSAY NAME: PK parameters in preclinical species
- Format: in vivo
- COND: in vivo, po; Mouse; 3 mg/kg p.o.; dose-normalized to 1 mg/kg
REPORTED PROPERTY: Cmax (nM)
Answers are plain numbers, in nM.

INSERT INTO measurements (test_smiles, recorded_number) VALUES
  ('COc1cc2c(cc1OC(C)C)[C@H](c1ccc(Cl)cc1)N(c1ccc(N(C)C[C@H]3CC[C@H](N4CCN(C)C(=O)C4)CC3)cc1)C(=O)C2', 207);

# ---- query molecule ----
Looking for the measured Cmax of COc1cc2c(cc1OC(C)C)[C@H](c1ccc(Cl)cc1)N(c1ccc(N(C)C[C@H]3CC[C@H](N4CCNC(=O)C4)CC3)cc1)C(=O)C2 , can you help?
94

----------
- Test system: cell lines from the Cancer Cell Line Encyclopedia (CCLE)
- ASSAY NAME: High-throughput cell viability assay, CCLE cell line panel (n = 356)
- Assay type: cell-based, human
- COND: Homo sapiens, HepG2, Hep G2, TP53 WT
REPORTED PROPERTY: IC50 (µM)
Answers are plain numbers, in µM.

Give its IC50 value. Item: COc1cc2c(cc1OC(C)C)[C@H](c1ccc(Cl)cc1)N(c1ccc(N(C)C[C@H]3CC[C@H](N4CCNC(=O)C4)CC3)cc1)C(=O)C2
1.95

----------
- Test system: cell lines from the Cancer Cell Line Encyclopedia (CCLE)
- ASSAY NAME: High-throughput cell viability assay, CCLE cell line panel (n = 356)
- Format: cell-based, human
- COND: Homo sapiens, KYSE-510, read-out: NVP- CFC218 IC50 (µM), cell line KYSE-510, oesophagus, TP53 MUT
REPORTED PROPERTY: IC50

Reported IC50 for COc1cc2c(cc1OC(C)C)[C@H](c1ccc(Cl)cc1)N(c1ccc(N(C)C[C@H]3CC[C@H](N4CCNC(=O)C4)CC3)cc1)C(=O)C2 [NVP-CFC218] : what is it?
> 8 µM

----------
- System: cell lines from the Cancer Cell Line Encyclopedia (CCLE)
- ASSAY NAME: High-throughput cell viability assay, CCLE cell line panel (n = 356)
- Format: cell-based, human
- COND: Homo sapiens, KYSE-520, read-out: NVP- CFC218 IC50 (µM), cell line KYSE-520, oesophagus, TP53 MUT
REPORTED PROPERTY: IC50

// returns reported IC50 for input COc1cc2c(cc1OC(C)C)[C@H](c1ccc(Cl)cc1)N(c1ccc(N(C)C[C@H]3CC[C@H](N4CCNC(=O)C4)CC3)cc1)C(=O)C2
> 8 µM

----------
- System: cell lines from the Cancer Cell Line Encyclopedia (CCLE)
- ASSAY NAME: High-throughput cell viability assay, CCLE cell line panel (n = 356)
- Format: cell-based, human
- COND: Homo sapiens, KATO III, TP53 MUT
- Description: Cell lines were partitioned into sensitive and insensitive groups based on compound potency (IC50). […] All other cell lines were obtained from ATCC (American Type Culture Collection), DSMZ (Deutsche Sammlung von Mikroorganismen und Zellkulturen), and HSRRB (Health Science Research Resources Bank) and cultured in RPMI or Dulbecco's modified Eagle's medium plus 10% FBS (Invitrogen, Carlsbad, CA) at 37°C, 5% CO2.
REPORTED PROPERTY: IC50

For COc1cc2c(cc1OC(C)C)[C@H](c1ccc(Cl)cc1)N(c1ccc(N(C)C[C@H]3CC[C@H](N4CCNC(=O)C4)CC3)cc1)C(=O)C2 , what is its reported IC50?
> 8 µM
